assayTarget: T1, recombinant human OX40L (extracellular domain, R&D Systems) (human, UniProt P23510 51-183)
T1 construct: also called hOX40L; rec. hOX40L
T1 sequence: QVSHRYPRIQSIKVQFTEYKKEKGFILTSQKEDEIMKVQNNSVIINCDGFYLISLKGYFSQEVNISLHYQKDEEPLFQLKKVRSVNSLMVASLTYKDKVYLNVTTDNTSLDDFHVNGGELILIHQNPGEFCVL
experiment: SPR, second injection after competitor OX40L01B11
The following binders are shown together with reported Binding Level sample 2 (RU) values.

[
  {
    "binder": "OX40L15B07 (VHH, monovalent Nanobody from E. coli; not shown: C-terminal c-myc and His6 tag) VHH: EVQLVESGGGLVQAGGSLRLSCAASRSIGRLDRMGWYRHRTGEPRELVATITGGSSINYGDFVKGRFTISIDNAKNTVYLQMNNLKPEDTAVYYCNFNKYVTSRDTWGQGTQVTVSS",
    "Binding Level sample 2 (RU)": 324
  },
  {
    "binder": "OX40L18E09 (VHH, monovalent Nanobody from E. coli; not shown: C-terminal c-myc and His6 tag) VHH: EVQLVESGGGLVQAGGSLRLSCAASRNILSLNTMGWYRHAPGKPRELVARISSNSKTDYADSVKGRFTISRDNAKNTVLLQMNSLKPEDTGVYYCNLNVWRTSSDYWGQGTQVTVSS",
    "Binding Level sample 2 (RU)": 312
  },
  {
    "binder": "OX40L19A07 (VHH, monovalent Nanobody from E. coli; not shown: C-terminal c-myc and His6 tag) VHH: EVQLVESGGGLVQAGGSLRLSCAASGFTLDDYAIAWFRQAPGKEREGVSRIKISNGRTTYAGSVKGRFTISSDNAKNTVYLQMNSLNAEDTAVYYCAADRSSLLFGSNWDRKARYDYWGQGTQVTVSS",
    "Binding Level sample 2 (RU)": 371
  }
]
